# Target: T1, rat collagen, acid soluble, type I, rat tail (Upstate 08-115) (rat, UniProt P02454 152-1207; P02466 86-1125)
# T1 construct: tissue extract, gelled and dried in wells; also called dried rat collagen
# T1 sequence (P02454 152-1207, chain 1 of 2): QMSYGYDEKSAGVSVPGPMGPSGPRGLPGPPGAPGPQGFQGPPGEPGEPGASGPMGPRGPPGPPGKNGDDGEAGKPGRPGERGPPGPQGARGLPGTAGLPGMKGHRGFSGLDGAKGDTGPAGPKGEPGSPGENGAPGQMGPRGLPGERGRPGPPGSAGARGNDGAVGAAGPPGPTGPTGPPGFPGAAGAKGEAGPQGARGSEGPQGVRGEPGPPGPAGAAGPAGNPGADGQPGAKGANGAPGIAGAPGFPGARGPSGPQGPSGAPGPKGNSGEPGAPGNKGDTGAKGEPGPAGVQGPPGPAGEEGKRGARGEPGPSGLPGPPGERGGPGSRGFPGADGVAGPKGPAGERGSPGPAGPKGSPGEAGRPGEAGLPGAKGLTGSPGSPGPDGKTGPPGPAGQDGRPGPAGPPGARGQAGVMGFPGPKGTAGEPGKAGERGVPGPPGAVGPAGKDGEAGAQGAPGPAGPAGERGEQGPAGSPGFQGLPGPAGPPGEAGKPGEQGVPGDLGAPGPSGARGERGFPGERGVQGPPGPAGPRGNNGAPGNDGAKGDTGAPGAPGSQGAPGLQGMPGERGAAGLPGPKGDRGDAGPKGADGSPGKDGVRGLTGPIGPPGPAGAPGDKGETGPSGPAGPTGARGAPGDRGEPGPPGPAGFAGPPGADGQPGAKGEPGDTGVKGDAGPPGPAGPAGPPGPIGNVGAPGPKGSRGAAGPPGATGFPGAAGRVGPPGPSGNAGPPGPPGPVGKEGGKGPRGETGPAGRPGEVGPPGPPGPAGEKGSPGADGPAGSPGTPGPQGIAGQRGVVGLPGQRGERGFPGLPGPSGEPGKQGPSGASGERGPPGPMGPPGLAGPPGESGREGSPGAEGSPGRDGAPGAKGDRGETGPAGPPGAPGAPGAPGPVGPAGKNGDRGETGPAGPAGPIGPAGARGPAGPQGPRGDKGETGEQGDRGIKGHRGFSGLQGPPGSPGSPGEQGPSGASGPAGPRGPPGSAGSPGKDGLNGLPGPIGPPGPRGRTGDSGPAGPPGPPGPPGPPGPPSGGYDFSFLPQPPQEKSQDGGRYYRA
# T1 sequence (P02466 86-1125, chain 2 of 2): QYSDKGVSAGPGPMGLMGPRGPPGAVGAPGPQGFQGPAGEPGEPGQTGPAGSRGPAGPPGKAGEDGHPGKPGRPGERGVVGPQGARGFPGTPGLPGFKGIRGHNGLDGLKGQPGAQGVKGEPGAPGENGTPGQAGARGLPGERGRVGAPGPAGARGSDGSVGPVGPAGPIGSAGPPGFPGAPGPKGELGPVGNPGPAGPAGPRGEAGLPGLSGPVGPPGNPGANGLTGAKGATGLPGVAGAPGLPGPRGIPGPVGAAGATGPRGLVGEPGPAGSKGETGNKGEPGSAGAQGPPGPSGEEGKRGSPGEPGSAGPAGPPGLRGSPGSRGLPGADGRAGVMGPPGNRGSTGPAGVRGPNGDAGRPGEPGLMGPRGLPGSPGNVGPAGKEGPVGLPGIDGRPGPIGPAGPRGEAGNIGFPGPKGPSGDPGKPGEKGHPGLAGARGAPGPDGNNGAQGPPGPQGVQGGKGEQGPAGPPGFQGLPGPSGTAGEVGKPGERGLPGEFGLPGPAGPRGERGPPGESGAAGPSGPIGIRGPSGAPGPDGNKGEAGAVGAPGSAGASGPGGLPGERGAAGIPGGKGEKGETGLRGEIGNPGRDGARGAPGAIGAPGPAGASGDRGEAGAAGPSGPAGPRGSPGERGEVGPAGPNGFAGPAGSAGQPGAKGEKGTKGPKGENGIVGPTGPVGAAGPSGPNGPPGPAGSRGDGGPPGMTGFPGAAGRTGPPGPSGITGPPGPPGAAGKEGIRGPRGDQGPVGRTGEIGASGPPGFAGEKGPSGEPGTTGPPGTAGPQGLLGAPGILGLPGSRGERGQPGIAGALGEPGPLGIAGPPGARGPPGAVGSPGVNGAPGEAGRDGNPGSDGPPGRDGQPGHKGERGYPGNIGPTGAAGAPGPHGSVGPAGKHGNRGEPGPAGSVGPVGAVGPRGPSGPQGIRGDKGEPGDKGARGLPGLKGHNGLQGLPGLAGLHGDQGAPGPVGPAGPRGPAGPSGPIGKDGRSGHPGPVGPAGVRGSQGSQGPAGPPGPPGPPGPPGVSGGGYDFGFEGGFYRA
# Assay details: dried collagen assay
Bridge positions count the residues as written; N and C are the ends. Square brackets hold non-standard residues; d marks the D form. Primed or numbered codes have the meaning given here. Side chains are listed from the residue outwards. Ends that are not written are not given here. Gd^T(3) = GdDTPA attached via thiourea; 1,4 AMB(Gd^T) = not defined here; Phg = N[C@H](C(=O)O)c1ccccc1; Gd^T″ = GdDTPA-thiourea
Observed property: % bound

| Binder | Value observed |
| --- | --- |
| {Gd^T″}-GK([Gly-Gd^T″])WHCYTYFPHHYCVYG-{1,4 AMB(Gd^T)} (disulfide 5-14 (inferred); reading uncertain) [Compound ID 1000] | 68% |
| {Gd^T″}-GK([Gly-Gd^T″])WHCYTYFPHHYCVYYK(Gd^T″) (disulfide 5-14 (inferred); not fully specified (C-terminus)) [Compound ID 975] | 64% |
| {Gd^T″}-GQWHCTTIFPHH[dY]CLYG (disulfide 5-14 (inferred); not fully specified (C-terminus)) [Compound ID 917] | 0% |
| {Gd^T(3)}-GK([Gly-Gd^T(3)])WHCYTYFPHHYCLY[Phg]K(Gd^T(3)) (disulfide 5-14; not fully specified (C-terminus)) [Compound ID 986] | 67% |
